Give true when the value for melting point is at least 100 °C. Give false when it is less.

Does melting point meet or surpass 100 °C for ON=Cc1cnn2ccc(OCCCCN3CCN(c4ccccc4Cl)CC3)cc12 [Example E35] ?
true

Assess whether reported melting point for O=Cc1cnn2ccc(OCCCCN3CCN(c4ccccc4Cl)CC3)cc12 sits at 100 °C or higher.
true

Quick check: does O=Cc1cnn2cccc(OCCCCN3CCN(c4ccccc4Cl)CC3)c12 have melting point greater than or equal to 100 °C?
true

More entries:
Would you say O=Cc1cnn2ccc(OCCCCN3CCN(c4ccc(O)cc4)CC3)cc12 shows melting point at minimum 100 °C?
true

Decide: is the reported value of melting point for Clc1ccccc1N1CCN(CCCCOc2cccn3nccc23)CC1 equal to or greater than 100 °C?
false

The measured values listed here are drawn from patent US20100168125A1.
